TARGET: T1, TIM-3 (T cell immunoglobulin and mucin-domain containing-3) (human, UniProt Q8TDQ0 22-200, limits assumed)
T1 construct: also called TIMD-3; HAVCR2
T1 sequence (looked up): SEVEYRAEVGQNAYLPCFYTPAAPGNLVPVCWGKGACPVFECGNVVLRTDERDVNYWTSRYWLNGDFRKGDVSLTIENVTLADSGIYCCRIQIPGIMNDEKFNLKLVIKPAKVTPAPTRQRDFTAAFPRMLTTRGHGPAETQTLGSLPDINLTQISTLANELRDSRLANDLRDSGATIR
PROCEDURE TEXT: ELISA, Fab on TIM-3
READOUT KIND: EC50 (ng/mL)
Numeric only. Scale: ng/mL

These solved cases illustrate the format of a correct answer.
1. Fab clone 2F8 (Fab, V domains shown, Llama-derived Fab from an immune library; the constant domains of the Fab are not) VH: EVQLVESGGGLVQPGGSLRLSCAASGFTFGSYDMSWVRQAPGKGPEWVSTISAGGGRTYYADSVKDRFTISRDNAKNTLYLQMNSLKPEDTAVYYCAKVVIDYWGQGTQVTVSS VL: DVVLTQTPGSLSVVPGESASISCKASQSLVHTDGKTYVYWLLQKPGQRPHLLIYQVSNHESGVPDRFTGSGSGTDFTLKISGVKAEDAGVYYCAQATYYPSFGSGTRLEIK = 18.1
2. Fab clone 2D6 (Fab, V domains shown, Llama-derived Fab from an immune library; the constant domains of the Fab are not) VH: QVQLQESGGGLVQPGGSLTLSCAASGFFFSSYAMSWVRQAPGKGLEWVSSISAGGGTSYYADSVKGRFTISRDSAKNTLVLQMNSLKPEDTAVYYCAKKRQNFWSEGYDSWGQGTQVTVSS VL: HSAVTQPPSVSGSPGKAVTISCVGSSSDVGYGDYVSWYQQLPGMAPKLLIYDVEKRASGIPDRFSGSKSGNTASLTISGLQSEDEADYYCASYRSDSNFVFGGGTHLAVL = 7.17

Tell me the measured EC50 of Fab clone 2C6 (Fab, V domains shown, Llama-derived Fab from an immune library; the constant domains of the Fab are not) VH: QVQLVESGGGLVQPGGSLRLSCAASGFAFSSYDMSWVRQAPGKGPEWVSTINSGGGSTSYADSVKGRFTISRDNAKNTVYLQMNSLKPEDTAVYYCAARSLYYTRVPMYDYWGQGTQVTVSK VL: QAVVTQEPSLSVSPGGTVTLTCGLSSGSVTTNNYPGWFQQTPGQAPRTLIYSTSSRHSGVPSRFSGSISGNKAALTITGAQPEDEADYYCALDIGSYTAVFGGGTHLTVL , please.
8.21
